# System: BT-549 breast
# test-name: NCI-60 one-dose screen, 48 h (100 = growth as untreated, 0 = no growth, -100 = all killed)
# experimental-context: 10 µM
Compounds without any hit were thinned out: in the full panel of roughly 83,000, 20% have a hit.
Below, each entry is listed alongside its reported growth.
Give the number; % is assumed, so skip it.

1) Cc1cc2ccccc2nc1-c1ccccc1F ... 92.2

q: Form entry - test system: BT-549 breast; read-out: growth; compound: CCN1CCC2(CC1)OC(c1ccccc1)C(c1ccccc1)O2 (configuration not stated)
a: 110

q: API: value(readout= growth, system= BT-549 breast, query= `CC(=O)c1nc2ccccc2n1CCNC(N)=O` )
a: 74.4

q: Any idea what growth came out for `CN(C)c1ccc(-c2cc(-c3cccc(NS(C)(=O)=O)c3)nc(N)c2C#N)cc1` on BT-549 breast?
a: 30.8

q: Request body: readout growth, system BT-549 breast, query Clc1ccc(/C=C2\CCCC3=C2N=C2SC=NN2C3c2ccc(Cl)cc2)cc1 (configuration not stated) . Return the value.
a: 117

q: Return growth measured with BT-549 breast given this compound: COc1ccc2nc3cc(Cl)ccc3c(NCCNCC(C)O)c2c1 (configuration not stated)
a: 88

q: What reported growth corresponds to `Cc1ccc(NC(=O)Nc2cccnc2)cc1NC(=O)Nc1cccnc1` on BT-549 breast?
a: 98.1

* * *

# Test system: SF-539 CNS
# test-name: NCI-60 one-dose screen, 48 h (100 = growth as untreated, 0 = no growth, -100 = all killed)
# experimental-context: 10 µM
Compounds without any hit were thinned out: in the full panel of roughly 83,000, 20% have a hit. Activity calls are given as the source filed them. How the source made its calls: active means growth percent below 10; inactive means the rest.
measured-quantity: growth

Solved entries (count: 8):
1) CCc1ccc2c(c1)N(CCO)C1=C(C(=O)OC1)C2c1cc(OC)c(OC)c(OC)c1 (centres undefined) ... -9.69% (active)
2) Cn1c([N+](=O)[O-])cnc1/C=C1\Oc2ccccc2C1=O ... -43.4% (active)
3) CN1CCCNc2c(c(=O)c2=O)NCCCN(C)CCCNc2c(c(=O)c2=O)NCCCN(C)CCCNc2c(c(=O)c2=O)NCCCN(C)CCCNc2c(c(=O)c2=O)NCCCN(C)CCCNc2c(c(=O)c2=O)NCCCN(C)CCCNc2c(c(=O)c2=O)NCCCN(C)CCCNc2c(c(=O)c2=O)NCCC1 ... 6.63% (active)
4) CCCN(CCC)CCC(O)c1cc2c(c3ccccc13)CCCC2 (centres undefined) ... 85.4% (inactive)
5) O=S(=O)(NCCCNc1nccc(-c2c(-c3ccc(F)cc3)nc3sccn23)n1)c1ccc(F)cc1 ... 78.1% (inactive)
6) Cc1cc(O)c(C(C)(C)C)cc1Sc1cc(C(C)(C)C)c(O)cc1C ... 77.8% (inactive)
7) CC(C)(C#N)Nc1ccccc1 ... 96.2% (inactive)
8) COc1ccc2c(c1)-c1c(c3cc(OC)ccc3n(CCN(C)C)c1=O)C2=O ... 37.7% (inactive)

Next up:
q: Please provide the recorded growth for `CC(=O)c1nc2ccccc2n1CCN1CCN(C)CC1` , tested on SF-539 CNS.
a: 35.3% (inactive)

* * *

# Test system: PC-3 prostate
# test-name: NCI-60 one-dose screen, 48 h (100 = growth as untreated, 0 = no growth, -100 = all killed)
# experimental-context: 10 µM
About 83,000 compounds went through this panel and 20% of them were active in at least one assay; those are over-represented in the sample as a whole.
Entries whose growth is below 40% take Met; entries at or above 40% take Not met.

1) COc1ccc(-c2nn(-c3cccc(NC(=O)c4ccc5c(c4)OCCO5)c3)cc2-c2ccncc2)cc1Cl ... Met
2) Cc1ccc2oc3nc(C)c(C(=O)NCc4ccccc4)cc3c(=O)c2c1 ... Not met
3) COc1ccc2c(c1)N(CCO)C1=C(C(=O)OC1)C2c1cc(OC)c(OC)c(OC)c1 (centres undefined) ... Met
4) Nc1ccn(C2CC(O)C(CO)O2)c(=O)n1 (centres undefined) ... Not met
5) CN(C)Cc1cn(-c2ncc(-c3ccc(C(F)(F)F)cc3)c(NC3CCCCCC3)n2)nn1 ... Not met

q: Please indicate whether the reported growth of `COc1ccc(/C=C/C(C)=N/OCC(=O)O)cc1` is strictly below 40%.
a: Not met

q: Strictly below 40% in growth? `CC/C(=C(/c1ccc(OCCN(C)C)cc1)c1ccc(OC(=O)CCCCCCCCC(=O)c2c(C)[nH]c(/C=C3\N=C(c4ccc[nH]4)C=C3OC)c2C)cc1)c1ccccc1`
a: Not met
